test system: PGE2-induced contraction of isolated guinea pig ileum (GPI) and isolated rat fundus (RF); test: Inhibition of PGE2-induced contraction of isolated smooth muscle preparations (anti-prostaglandin activity); assay type: cell-based; settings: isolated GPI or RF (tissue not specified per value); incubation 15 min initial exposure, 5 min each successive increment; read-out: I.C.50 (vs PGE2)
Reported pIC50 by item:
Scale: negative log10 of molar concentration, which is what pIC50 denotes.

>  <compound>
O=C(c1ccc(OP(=O)(O)c2ccccc2)cc1)C(Cc1ccccc1)Cc1ccc(Cl)cc1 (centres unmarked) [Compound 2]

>  <pIC50>
6.70

$$$$

Moving on to the next compound.
Documented pIC50 of O=C(c1ccc(OP(=O)(O)Cc2ccccc2)cc1)C(Cc1ccccc1)Cc1ccc(Cl)cc1 (centres unmarked) [Compound 3] : 8.21

----------
Catalogue of molecules with associated LD50 at 24 h
test: Topical toxicity in hairless mice; details: mouse, in vivo, topical or ocular, topically, 0.1 ml of 90% PEG, read-out: L.D.50 at 24 hours

>  <molecule>
O=C(c1ccc(OP(=O)(O)Cc2ccccc2)cc1)C(Cc1ccccc1)Cc1ccc(Cl)cc1 (centres unmarked) [Compound 3]

>  <LD50 at 24 h>
> 4350 mg/kg

$$$$

Moving on to the next molecule.
Given item O=C(c1ccc(OP(=O)(O)Oc2ccccc2)cc1)C(Cc1ccccc1)Cc1ccc(Cl)cc1 (centres unmarked) [Compound 1, reference compound] , the value recorded as its LD50 at 24 h is > 4300 mg/kg

----------
assay: Systemic toxicity in male Swiss Webster mice; format: in vivo, mouse; settings: mouse, in vivo, po, in saline, 24 hours; read-out: L.D.50 at 24 hours
The following compounds are shown together with reported LD50 at 24 h values.
Remember to follow the number with its unit.

>  <compound>
O=C(c1ccc(OP(=O)(O)Oc2ccccc2)cc1)C(Cc1ccccc1)Cc1ccc(Cl)cc1 (centres unmarked) [Compound 1, reference compound]

>  <readout_type>
LD50 at 24 h

>  <value>
235 mg/kg

$$$$

Below: the item to evaluate.
LD50 at 24 h reading for O=C(c1ccc(OP(=O)(O)Cc2ccccc2)cc1)C(Cc1ccccc1)Cc1ccc(Cl)cc1 (centres unmarked) [Compound 3] : 715 mg/kg
